compounds and their reported IC50
- TESTED SYSTEM: CDK2 (Homo sapiens)
- Construct: High-Throughput Measurement of Cellular Endogenous CDK2; endogenous in cells
- TEST DETAILS: Inhibition of CDK2: phospho-Rb (S807/811) HTRF measurement in OVCAR3 cells, 24 h
- EXPERIMENTAL CONTEXT: 24 h compound treatment, read-out: pRB_OVCAR3_24h

Here is how some compounds turned out for IC50.
- Cn1c(=O)n(C2CCC(=O)NC2=O)c2cccc(C3CCN(CC4CCN(c5cc(F)cc(S(=O)(=O)N6CCC(Nc7ncc(Cl)cn7)CC6)c5)CC4)CC3)c21 (stereo not drawn) [Example 180]: 100 to 500 nM
- Cn1c(=O)n(C2CCC(=O)NC2=O)c2cccc(C3CCN(Cc4cccc(S(=O)(=O)N5CCC(Nc6ncc(C(F)(F)F)cn6)CC5)c4)CC3)c21 (stereo not drawn) [Example 83]: 1 to 100 nM
- Cn1c(=O)n(C2CCC(=O)NC2=O)c2cccc(C3CCN(CC4CCN(c5cccc(S(=O)(=O)N6CCC(Nc7ncc(C(F)(F)F)cn7)CC6)c5)CC4)CC3)c21 (stereo not drawn) [Example 107]: 1 to 100 nM
- Cn1nc(N2CCC(=O)NC2=O)c2ccc(C3CCN(CCCc4cccc(S(=O)(=O)N5CCC(Nc6ncc(C(F)(F)F)cn6)CC5)c4)CC3)cc21 [Example 87]: 1 to 100 nM
- Cn1nc(N2CCC(=O)NC2=O)c2ccc(C3CCN(CC4CCN(c5cccc(S(=O)(=O)N6CCC(Nc7ncc(C(F)(F)F)cn7)CC6)c5)CC4)CC3)cc21 [Example 40]: 1 to 100 nM

Consider now this further compound.
Data request: Consider the compound Cn1nc(N2CCC(=O)NC2=O)c2ccc(N3CCN(Cc4cccc(S(=O)(=O)N5CCC(Nc6ncc(Cl)cn6)CC5)c4)CC3)cc21 [Example 25] and give its measured IC50.
Data returned: 100 to 500 nM
